B1: TOR1AIP2 (parent)
chain: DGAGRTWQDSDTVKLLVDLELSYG

variants of: B1; assay: protein stability index of a GFP-peptide fusion (GPS, HEK-293T) (PSI 1-6); higher = more stable; conditions: c terminus: a fixed tail appended;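 further: lentivirally expressed fusions sorted by FACS into six bins by GFP to DsRed ratio, PSI derived from sequencing read proportions per bin multiplied by bin number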
Label MET when protein stability index is at or above 3; anything below gets NOT MET.

Check out these entries, answers already filled in.
seq string: DGSGRTWQDSDTVKLLVDLELSYG [A3S]
discrete label: NOT MET
--
seq string: DGAGRTWQDSDTVKLLVDLEWSYG [L21W]
discrete label: NOT MET
--
seq string: DGAGRTWRDSDTVKLLVDLELSYG [Q8R]
discrete label: NOT MET
--
seq string: DGAGRTWQDSDTVKLLVDLELSYN [G24N]
discrete label: NOT MET
--
seq string: DGAGLTWQDSDTVKLLVDLELSYG [R5L]
discrete label: NOT MET
--
seq string: DRAGRTWQDSDTVKLLVDLELSYG [G2R]
discrete label: NOT MET

# ---- query variant ----
API: above_or_equal(metric=protein stability index, cutoff=3) for item DGAGRTWQDSDTVKLLMDLELSYG [V17M]
NOT MET
